System tested: T1, HLA-DRB5*0101 molecule (human)
T1 chain 1: not shown
T1 chain 2: not shown
Measurement description: competition ELISA vs biotin-HA 306-318
Rule: measured IC50 below 200 nM gets true; anything equal to or greater than 200 nM gets false.

See these solved cases before continuing.
[[record]]
binder = "SEYRHYCYSLYGTTL (modifications not checked) [E6 81-95]"
class_name = "false"

[[record]]
binder = "QQYNKPLCDLLIRCI (modifications not checked) [E6 97-111]"
class_name = "false"

[[record]]
binder = "FYSKISEYRHYCYSL (modifications not checked) [E6 76-90]"
class_name = "false"

[[record]]
binder = "EKQRHLDKKQRFHNIRGRWT (modifications not checked) [E6(121-140)]"
class_name = "true"

[[record]]
binder = "MGTLGIVCPICSQKP (modifications not checked) [E7 84-98]"
class_name = "true"


Now turn to the next binder.
Identify whether the binder DLLIRCINCQKPLCPEEKQRHL (modifications not checked) [E6(105-126)] records IC50 below 200 nM.
true
